- target under test: T1, rat alpha CGRP (SEQ ID NO: 82) (rat)
- T1 construct: also called rat αCGRP; rat α-CGRP
- T1 peptide: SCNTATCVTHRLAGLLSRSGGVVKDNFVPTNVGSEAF
- assay summary: SPR, 37 C, mutein captured, CGRP analyte
property: kon (M⁻¹ s⁻¹)
// note: answer is a bare numeric in M⁻¹ s⁻¹

Illustrative cases are given below, each with its answer.
binder	endpoint unit	kon
lipocalin mutein SEQ ID NO: 10 (designed binder, biotinylated by NHS chemistry for capture in SPR) QDSTSDLIPAPPLSKVPLQQNFQDNQFHGKWYVVGWAGNTLLREDKNPTKMQATIYELKEDKSYNATWVYLSEKKCNYHIETSVPGSQPGEFTLGTTKSYPGETPILVRVVSTNYNQHAMVFFKGVSQNREIFEITLYGRTKELTSELKENFIRFSKSLGLPENHIVFPVPIDQCIDGSAWSHPQFEK	M⁻¹ s⁻¹	559000
lipocalin mutein SEQ ID NO: 4 (designed binder, biotinylated by NHS chemistry for capture in SPR) QDSTSDLIPAPPLSKVPLQQNFQDNQFHGKWYVVGWAGNTLLREDKDPTKMQATIYELKEDKSYNVTWVYFSEKKCNYHIETFVPGSQPGEFTLGTIKSYPGETSILVRVVSTNYNQHAMVFFKGVSQNREIFEITLYGRTKELTSELKENFIRFSKSLGLPENHIVFPVPIDQCIDGSAWSHPQFEK	M⁻¹ s⁻¹	1.24e+06
lipocalin mutein SEQ ID NO: 11 (designed binder, biotinylated by NHS chemistry for capture in SPR) QDSTSDLIPAPPLSKVPLQQNFQDNQFHGKWYVVGWAGNTLLREDKDPIKMQAIIYELKEDRSYNVTWVYFSEKKCNYHIETFVPGSQPGEFTLGTIKSYPGETPILVRVVSTNYNQHAMVFFKGVNQNREIFEIILYGRTKELTNELKENFIRFSKSLGLPENHIVFPVPIDQCIDGSAWSHPQFEK	M⁻¹ s⁻¹	984000
lipocalin mutein SEQ ID NO: 13 (designed binder, biotinylated by NHS chemistry for capture in SPR) QDSTSDLIPAPPLSKVPLQQNFQDNQFHGKWYVVGRAGNEELREDKDPQKMEATIYELKEDKSYNVTDVGFSEKKCIYVIHTFVPGSQPGEFTLGNIKSYPGVTSALVRVVSTNYNQHAMVFFKVVKQNRELFEITLYGRTKELTSELKENFIRFSKSLGLPENHIVFPVPIDQCIDGSAWSHPQFEK	M⁻¹ s⁻¹	1.85e+06
lipocalin mutein SEQ ID NO: 25 (designed binder, biotinylated by NHS chemistry for capture in SPR) QDSTSDLIPAPPLSKVPLQQNFQDNQFHGKWYVVGWAGNTLLREDKDPIKMQAKIYELKEDRSYNVTWVYFADKKCNYHIETFVPGSQPGEFTLGTIKSYPGETPILVRVVSTNYNQHAMVFFKGVNQNREIFEIILYGRTKELTNELKENFIRFSKSLGLPENHIVFPVPIDQCIDGSAWSHPQFEK	M⁻¹ s⁻¹	1.3e+06

Quick one: give measured kon for lipocalin mutein SEQ ID NO: 20 (designed binder, biotinylated by NHS chemistry for capture in SPR) QDSTSDLIPAPPLSKVPLQQNFQDNQFHGKWYVVGRAGNDTLRKDKDPEKMEATIYELKEDKSYNVTDVGFVQKKCMYVIHTFVPGSQPGEFTLGNIKSYPGVTSALVRVVSTNYNQHAMVFVKLVKQNRELFEITLYGRTKELTSELKENFIRFSKSLGLPENHIVFPVPIDQCIDGSAWSHPQFEK
867000
